Each recorded value in this set is attributed to the supplement of paper PMC6992640.

- Test system: UCD52 (cells of a triple-negative basal-like breast cancer xenograft)
- method: cell viability (% of vehicle); higher = less cytotoxic;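 also: PDX cells carrying CMV promoter-driven luciferase, viability read as total photon flux per second by IVIS imaging following D-luciferin, vehicle control 0.1% DMSO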
- assayContext: 10 µM; 72 h
Field: label. Allowed values: Condition met (cell viability < 100) or Condition not met (cell viability >= 100).

Some solved entries appear below for comparison.
{"molecule": "CC1(C)O[C@@H]2C[C@H]3[C@@H]4C[C@H](F)C5=CC(=O)C=C[C@]5(C)[C@@]4(F)[C@@H](O)C[C@]3(C)[C@]2(C(=O)CO)O1 [Fluocinolone Acetonide]", "discreteLabel": "Condition not met"}
{"molecule": "CC(C)(C#N)c1cc(Cn2cncn2)cc(C(C)(C)C#N)c1", "discreteLabel": "Condition not met"}
{"molecule": "O=C([O-])c1ccccc1O.[Na+] [Sodium salicylate]", "discreteLabel": "Condition met"}
{"molecule": "O=C(Oc1ccccc1C(=O)O)c1ccccc1O", "discreteLabel": "Condition met"}
{"molecule": "CO[C@H]1O[C@@H]2O[C@@]3(C)CC[C@H]4[C@H](C)CC[C@@H]([C@H]1C)[C@@]24OO3 [Artemether (SM-224)]", "discreteLabel": "Condition met"}
{"molecule": "Cl.c1ccc2c(c1)CCCC2C1=NCCN1 (configuration not stated) [Tetrahydrozoline HCl]", "discreteLabel": "Condition met"}

Input: Is cell viability of O=C(O)c1ccccc1 strictly below 100?
Output: Condition not met

----------
cell viability: recorded values
- Tested on: WHIM2 (cells of a triple-negative basal-like breast cancer xenograft)
- method: cell viability (% of vehicle); higher = less cytotoxic
- assayContext: 10 µM; 72 h
Just the number, please.

Input: Given the compound CN(Cc1ccc(C(C)(C)C)cc1)Cc1cccc2ccccc12.Cl [Butenafine HCl] , what is its reported cell viability?
Output: 56.2

Input: Given the compound O=C(C=CC=Cc1ccc2c(c1)OCO2)N1CCCCC1 , what is its reported cell viability?
Output: 117

Input: Given the compound CC1(C)CCC(C)(C)c2cc(NC(=O)c3ccc(C(=O)O)cc3)ccc21 , what is its reported cell viability?
Output: 98.1

Input: Given the compound COc1ccc2cc(CCC(C)=O)ccc2c1 , what is its reported cell viability?
Output: 117

Input: Given the compound CC(C)c1c(C(=O)Nc2ccccc2)c(-c2ccccc2)c(-c2ccc(F)cc2)n1CCC(O)CC(O)CC(=O)[O-].CC(C)c1c(C(=O)Nc2ccccc2)c(-c2ccccc2)c(-c2ccc(F)cc2)n1CCC(O)CC(O)CC(=O)[O-].[Ca+2] (stereo unspecified) , what is its reported cell viability?
Output: 43.7

Input: Given the compound O=C1C(CCC(O)c2ccc(F)cc2)C(c2ccc(O)cc2)N1c1ccc(F)cc1 (stereo unspecified) , what is its reported cell viability?
Output: 96

Input: Given the compound Cl.O=C1c2cccc3c2C(CCC3)CN1C1CN2CCC1CC2 (stereo unspecified) [Palonosetron HCl] , what is its reported cell viability?
Output: 82.6

Input: Given the compound CCOC(=O)C(CCc1ccccc1)NC(C)C(=O)N1Cc2ccccc2CC1C(=O)O.Cl (stereo unspecified) [Quinapril HCl] , what is its reported cell viability?
Output: 95.1

----------
- Test system: HCI13 (cells of an ER-positive luminal breast cancer xenograft)
- method: cell viability (% of vehicle); higher = less cytotoxic
- assayContext: 10 µM; 72 h
quantityMeasured: cell viability
Just the number, please.

{"compound": "CC(C)OC(=O)C(C)(C)Oc1ccc(C(=O)c2ccc(Cl)cc2)cc1 [Fenofibrate]", "assayResult": 87.5}
{"compound": "C.CCN1CC(CCN2CCOCC2)C(c2ccccc2)(c2ccccc2)C1=O.O (stereo not given) [Doxapram HCl]", "assayResult": 91.2}
{"compound": "CCCCNc1cc(C(=O)O)cc(S(N)(=O)=O)c1Oc1ccccc1 [Bumetanide]", "assayResult": 89.5}

Input: Given the compound CC(C)(C)NCC(O)COc1nsnc1N1CCOCC1.O=C(O)C=CC(=O)O (stereo not given) [Timolol Maleate] , what is its reported cell viability?
Output: 89.5

Input: Given the compound Cn1cnc2c(F)c(Nc3ccc(Br)cc3Cl)c(C(=O)NOCCO)cc21 [AZD6244 (Selumetinib)] , what is its reported cell viability?
Output: 92.2

----------
cell viability: recorded values
- Test system: HCI16 (cells of a triple-negative basal-like breast cancer xenograft)
- method: cell viability (% of vehicle); higher = less cytotoxic
- assayContext: 10 µM; 72 h

{"compound": "Cc1cccc(CN2CCN(C(c3ccccc3)c3ccc(Cl)cc3)CC2)c1.Cl.Cl (centres undefined) [Meclizine 2HCl]", "cell viability": 91.8}
{"compound": "CCc1c2c(nc3ccc(OC(=O)N4CCC(N5CCCCC5)CC4)cc13)-c1cc3c(c(=O)n1C2)COC(=O)C3(O)CC (centres undefined) [Irinotecan]", "cell viability": 140}
{"compound": "COc1ccc(O)cc1 [Mequinol]", "cell viability": 118}
{"compound": "CCn1cc(C(=O)O)c(=O)c2cc(F)c(N3CCNC(C)C3)c(F)c21.Cl (centres undefined) [Lomefloxacin HCl]", "cell viability": 107}

Input: Given the compound CC(C)(C)Cn1c(N)nc2ccc(-c3[nH]c(C(C)(C)C)nc3-c3ccc(F)cc3)nc21.CS(=O)(=O)O.CS(=O)(=O)O , what is its reported cell viability?
Output: 72.3

Input: Given the compound CN(C)c1ccc(O)c2c1CC1CC3C(N(C)C)C(=O)C(C(N)=O)=C(O)C3(O)C(=O)C1=C2O.Cl (centres undefined) [Minocycline HCl] , what is its reported cell viability?
Output: 96.5

Input: Given the compound CO[C@H]1/C=C/O[C@@]2(C)Oc3c(C)c(O)c4c(c3C2=O)C(=O)/C(=C/NN2CCN(C)CC2)C(=C4O)NC(=O)/C(C)=C/C=C/[C@H](C)[C@H](O)[C@@H](C)[C@@H](O)[C@@H](C)[C@H](OC(C)=O)[C@@H]1C [Rifampin] , what is its reported cell viability?
Output: 145

Input: Given the compound CC(C(=O)O)c1ccc2c(c1)Cc1cccnc1O2 (centres undefined) [Pranoprofen] , what is its reported cell viability?
Output: 125

Input: Given the compound CCC(CO)Nc1nc(NCc2ccccc2)c2ncn(C(C)C)c2n1 (centres undefined) [Roscovitine (Seliciclib,CYC202)] , what is its reported cell viability?
Output: 138

Input: Given the compound CC12CCC3=C4CCC(=O)C=C4CCC3C1CCC2(O)CC#N (centres undefined) [Dienogest] , what is its reported cell viability?
Output: 164

Input: Given the compound Clc1ccc(C(c2ccccc2Cl)C(Cl)Cl)cc1 (centres undefined) [Mitotane (Lsodren)] , what is its reported cell viability?
Output: 121

Input: Given the compound CO[C@H]1/C=C/O[C@@]2(C)Oc3c(C)c(O)c4c(c3C2=O)C2=NC3(CCN(CC(C)C)CC3)NC2=C(NC(=O)/C(C)=C\C=C\[C@H](C)[C@H](O)[C@@H](C)[C@@H](O)[C@@H](C)[C@H](OC(C)=O)[C@@H]1C)C4=O [Rifabutin] , what is its reported cell viability?
Output: 121

Input: Given the compound COc1c2ccoc2cc2oc(=O)ccc12 [5-Methoxypsoralen] , what is its reported cell viability?
Output: 109

Input: Given the compound c1cc(CN2CCCNCCNCCCNCC2)ccc1CN1CCCNCCNCCCNCC1 [Plerixafor (AMD3100)] , what is its reported cell viability?
Output: 87.9

----------
- Tested on: UCD52
- method: cell viability (% of vehicle); higher = less cytotoxic
- assayContext: 10 µM; 72 h
Field: label. Allowed values: rule met (cell viability < 90) or rule not met (cell viability >= 90).

Some solved entries appear below for comparison.
{"compound": "CC(=O)Nc1ccc(O)cc1", "discreteLabel": "rule not met"}
{"compound": "Cl.NNc1nncc2ccccc12 [Hydralazine HCl]", "discreteLabel": "rule not met"}
{"compound": "COc1ccc(C2(C#N)CCC(C(=O)O)CC2)cc1OC1CCCC1 (configuration not stated)", "discreteLabel": "rule not met"}

Input: Is cell viability of CCn1cc(C(=O)O)c(=O)c2cc(F)c(N3CCN(C)CC3)cc21.CS(=O)(=O)O [Pefloxacin Mesylate] strictly below 90?
Output: rule not met

Input: Is cell viability of CCC1(c2ccccc2)C(=O)NCNC1=O strictly below 90?
Output: rule met

Input: Is cell viability of COCCOC(=O)C1=C(C)NC(C)=C(C(=O)OCC=Cc2ccccc2)C1c1cccc([N+](=O)[O-])c1 (configuration not stated) strictly below 90?
Output: rule met

----------
cell viability: recorded values
- System: UCD52
- method: cell viability (% of vehicle); higher = less cytotoxic
- assayContext: 10 µM; 72 h
Just the number, please.

{"compound": "Cc1cc(Nc2cc(CN3CCOCC3)c3nc(C)c(Cc4ccc(Cl)cc4F)n3n2)n[nH]1", "cell viability": 103}

Input: Given the compound Clc1ccc2nsnc2c1NC1=NCCN1 [Tizanidine] , what is its reported cell viability?
Output: 101

----------
- Tested on: WHIM2
- method: cell viability (% of vehicle); higher = less cytotoxic
- assayContext: 10 µM; 72 h
quantityMeasured: cell viability
Just the number, please.

{"molecule": "CS(=O)(=O)O.OC(CCN1CCCCC1)(c1ccccc1)c1ccccc1 [Pridinol Methanesulfonate]", "quantityMeasured": "cell viability", "assayResult": 164}
{"molecule": "CC(=O)N=c1sc(S(N)(=O)=O)nn1C [Methazolamide]", "quantityMeasured": "cell viability", "assayResult": 94.6}
{"molecule": "CC(C)(C(=O)O)c1ccc(C(O)CCCN2CCC(C(O)(c3ccccc3)c3ccccc3)CC2)cc1.Cl (stereo not drawn) [Fexofenadine HCl]", "quantityMeasured": "cell viability", "assayResult": 84.5}
{"molecule": "COc1c(C)c2c(c(O)c1CC=C(C)CCC(=O)O)C(=O)OC2", "quantityMeasured": "cell viability", "assayResult": 65.8}
{"molecule": "Clc1ccc2c(c1)CCc1cccnc1C2=C1CCNCC1", "quantityMeasured": "cell viability", "assayResult": 69.5}

Here is the next item to consider.
Input: Given the molecule Clc1ccc(C(Cn2ccnc2)OCc2ccsc2Cl)c(Cl)c1 (stereo not drawn) , what is its reported cell viability?
Output: 35.8
